Target: DNA topoisomerase II alpha, full length (human, UniProt P11388 1-1531)
Sequence (P11388 whole entry): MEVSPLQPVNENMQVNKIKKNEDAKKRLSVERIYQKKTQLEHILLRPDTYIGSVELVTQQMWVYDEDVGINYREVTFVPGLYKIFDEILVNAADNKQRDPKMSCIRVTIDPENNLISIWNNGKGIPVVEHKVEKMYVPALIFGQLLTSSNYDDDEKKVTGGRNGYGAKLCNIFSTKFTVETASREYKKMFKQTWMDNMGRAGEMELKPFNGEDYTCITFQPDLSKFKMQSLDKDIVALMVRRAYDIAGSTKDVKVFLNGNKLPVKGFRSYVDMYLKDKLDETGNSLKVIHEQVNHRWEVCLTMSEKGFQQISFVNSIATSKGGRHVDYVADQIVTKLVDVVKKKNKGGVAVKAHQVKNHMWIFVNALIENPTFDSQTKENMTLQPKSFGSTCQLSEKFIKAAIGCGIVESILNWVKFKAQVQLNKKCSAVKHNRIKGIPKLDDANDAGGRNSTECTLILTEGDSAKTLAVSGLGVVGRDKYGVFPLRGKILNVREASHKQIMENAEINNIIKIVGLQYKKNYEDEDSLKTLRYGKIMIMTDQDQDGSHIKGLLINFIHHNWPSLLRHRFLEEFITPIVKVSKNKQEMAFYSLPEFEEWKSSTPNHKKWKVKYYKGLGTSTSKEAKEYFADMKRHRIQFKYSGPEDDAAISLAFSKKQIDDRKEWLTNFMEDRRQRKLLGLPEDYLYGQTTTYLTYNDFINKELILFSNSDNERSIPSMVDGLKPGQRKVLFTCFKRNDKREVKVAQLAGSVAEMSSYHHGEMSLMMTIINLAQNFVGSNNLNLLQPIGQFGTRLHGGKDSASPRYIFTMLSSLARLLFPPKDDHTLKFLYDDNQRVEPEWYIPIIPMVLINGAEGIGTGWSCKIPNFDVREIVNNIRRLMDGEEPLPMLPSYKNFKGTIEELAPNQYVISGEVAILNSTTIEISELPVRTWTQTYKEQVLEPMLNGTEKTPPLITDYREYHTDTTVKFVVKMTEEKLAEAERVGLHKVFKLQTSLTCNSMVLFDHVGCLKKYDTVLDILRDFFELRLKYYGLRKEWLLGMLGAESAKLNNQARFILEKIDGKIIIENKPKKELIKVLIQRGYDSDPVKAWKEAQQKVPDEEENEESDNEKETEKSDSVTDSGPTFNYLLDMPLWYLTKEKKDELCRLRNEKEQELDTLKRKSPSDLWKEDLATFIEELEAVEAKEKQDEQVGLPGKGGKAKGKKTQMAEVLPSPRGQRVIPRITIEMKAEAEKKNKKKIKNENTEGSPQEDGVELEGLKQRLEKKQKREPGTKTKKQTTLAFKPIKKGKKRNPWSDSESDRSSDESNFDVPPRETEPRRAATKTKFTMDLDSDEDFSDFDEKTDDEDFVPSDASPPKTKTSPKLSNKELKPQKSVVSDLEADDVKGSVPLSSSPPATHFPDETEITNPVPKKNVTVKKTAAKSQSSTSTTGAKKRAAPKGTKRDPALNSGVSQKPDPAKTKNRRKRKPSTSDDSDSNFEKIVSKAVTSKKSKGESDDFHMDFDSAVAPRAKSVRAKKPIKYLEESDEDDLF
Test: fluorescence anisotropy; no metal; 50 mM Tris pH 8, 5% glycerol, 50 mM KCl, 1% Triton X-100, 100 µg/ml acetylated BSA, 20°C; HEX oligo printed as 1 µM; 10 mM MgCl2 or CaCl2 where described
Details: protein: recombinant; chain copies: 2; blunt; as printed S2 is not the exact complement of S1: 2 mismatches at S1 positions 34-35 (possible typo)

- BINDER: "40 bp oligo AB (dsDNA) DNA 1: CGCAATCTGACAATGCGCTCATCGTCATCCTCGCGACGCG DNA 2: CGCGTGCCGAGGATGACGATGAGCGCATTGTCAGATTGCG"
  UNITS_LABEL: "nM"
  Kd: 160
